Reference for the values: patent US11702404B2

study.target: GLP-1R (Homo sapiens)
Sequence (P43220 24-463): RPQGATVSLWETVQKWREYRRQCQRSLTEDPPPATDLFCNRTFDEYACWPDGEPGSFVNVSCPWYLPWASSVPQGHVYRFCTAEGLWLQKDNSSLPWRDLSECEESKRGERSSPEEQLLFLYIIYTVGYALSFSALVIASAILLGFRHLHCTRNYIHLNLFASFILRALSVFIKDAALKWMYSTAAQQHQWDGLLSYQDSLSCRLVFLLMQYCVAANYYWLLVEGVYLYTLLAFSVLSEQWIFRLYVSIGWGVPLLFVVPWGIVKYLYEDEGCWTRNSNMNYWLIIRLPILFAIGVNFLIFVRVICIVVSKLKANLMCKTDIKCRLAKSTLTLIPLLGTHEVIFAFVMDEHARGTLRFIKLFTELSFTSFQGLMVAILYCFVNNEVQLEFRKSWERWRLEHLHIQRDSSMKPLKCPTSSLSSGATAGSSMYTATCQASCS
assay.info: GLP-1R activation: cAMP increase in CHO cells stably expressing GLP-1R
Type: cell-based
conditions.used: cAMP increase, CHO cells stably expressing GLP-1R, 10 point dose response, 30 minutes incubation; read-out: EC50
Rule: EC50 below 2 nM gives yes, anything at or above gives no.

Reference set, count: 3
>  <smiles.notation>
N#CCC1(n2c(Cc3ccc(-c4cccc(OCc5ccc(C#N)cc5F)n4)cc3F)nc3ccc(C(=O)O)cc32)CC1

>  <answer.label>
yes

$$$$
>  <smiles.notation>
N#Cc1ccc(COc2cccc(-c3cc(=O)n(Cc4nc5ccc(C(=O)O)cc5n4CC45CC(CO4)C5)cc3F)n2)c(F)c1

>  <answer.label>
no

$$$$
>  <smiles.notation>
COCCn1c(Cc2ccc(-c3cccc(OCC(=O)c4ccccc4)n3)cc2F)nc2ccc(C(=O)O)cc21

>  <answer.label>
no

$$$$

Query: Below 2 nM on EC50? Entry COCCn1c(Cc2cc(F)c(-c3cccc(OCc4ccc(C5=CCN(C(C)=O)CC5)cc4F)n3)cc2F)nc2ccc(C(=O)O)cc21
Result: no

Query: Below 2 nM on EC50? Entry O=C(O)c1cc(F)c2nc(Cc3ccc(-c4cccc(OCc5ccc(C(F)F)cc5F)n4)cc3F)n(CC34CC(CO3)C4)c2c1
Result: yes

Query: Below 2 nM on EC50? Entry Cc1cc(-c2ccc(F)c(OCc3ccc(C#N)cc3F)n2)ccc1Cc1nc2ccc(C(=O)O)cc2n1C[C@@H]1CCO1
Result: yes
